Attribution: paper PMC12652692

- Tested on: SF-268
- Procedure text: NCI60 one-dose screen
- Assay type: cell-based
- Experimental parameters: Homo sapiens; SF-268, 10 μM; read-out: Growth percent
Sorting guide: entries reporting activity at 10 µM beneath -70% go in the Fulfilled pile, the rest go in the Not fulfilled pile.

Data request: Determine if O=c1cc(-c2ccccc2)oc2cc(O)cc(O)c12 [compound 2, 5,7-dihydroxyflavone, reference compound] shows activity at 10 µM strictly lower than -70%.
Data returned: Not fulfilled

Data request: Dear colleague, could you confirm whether activity at 10 µM of `Cc1ccccc1[P+](CCCCOc1cc(O)c2c(=O)cc(-c3ccccc3)oc2c1)(c1ccccc1C)c1ccccc1C` falls below -70%? Thanks.
Data returned: Fulfilled

Data request: Decide: activity at 10 µM of `O=c1cc(-c2ccccc2)oc2cc(OCCCC[P+](c3ccccc3)(c3ccccc3)c3ccccc3)cc(O)c12` strictly below -70%?
Data returned: Not fulfilled

Data request: is_below(activity at 10 µM, -70%) for `O=c1cc(-c2ccccc2)oc2cc(OCCCC[P+](C3CCCCC3)(C3CCCCC3)C3CCCCC3)cc(O)c12` ?
Data returned: Not fulfilled
